# credit: the supplement of paper PMC9446081

target: MurF (UniProt P11880); test: relative enzymatic activity vs untreated control (fraction); higher = less inhibition; conditions: 100 µM; incubation time: 2 h at 37 C
Sequence (P11880 whole entry): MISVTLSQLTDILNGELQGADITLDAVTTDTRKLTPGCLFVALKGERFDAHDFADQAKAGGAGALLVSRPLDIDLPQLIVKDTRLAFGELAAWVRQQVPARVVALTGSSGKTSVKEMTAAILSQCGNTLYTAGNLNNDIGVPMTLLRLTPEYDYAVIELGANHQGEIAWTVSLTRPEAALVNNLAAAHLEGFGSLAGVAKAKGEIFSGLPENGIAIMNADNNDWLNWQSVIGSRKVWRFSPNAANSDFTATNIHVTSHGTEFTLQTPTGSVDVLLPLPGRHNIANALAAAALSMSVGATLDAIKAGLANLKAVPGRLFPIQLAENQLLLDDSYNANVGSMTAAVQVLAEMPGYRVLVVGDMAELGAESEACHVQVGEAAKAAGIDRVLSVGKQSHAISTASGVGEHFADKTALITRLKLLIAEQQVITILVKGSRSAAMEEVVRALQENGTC
I'd appreciate it if you could supply relative enzymatic activity values for the items below.
Give bare numbers.

Cc1nnc(SCC2=C(C(=O)[O-])N3C(=O)C(NC(=O)Cn4cnnn4)C3SC2)s1.[Na+] (stereo not drawn)
0.89
CCN1CCN(c2cc3c(cc2F)c(=O)c(C(=O)O)cn3C2CC2)CC1
0.88
CC(C)[C@@H](CC[C@@H](C)[C@H]1CC[C@H]2[C@@H]3[C@H](O)C[C@H]4C[C@@H](NCCCNCCCCN)CC[C@]4(C)[C@H]3CC[C@]12C)OS(=O)(=O)O
0.896
CON=C(C(=O)NC1C(=O)N2C(C(=O)OCOC(=O)C(C)(C)C)=C(C=Cc3scnc3C)CSC12)c1csc(N)n1 (stereo not drawn)
0.893
CN1CCN(c2c(F)cc3c(=O)c(C(=O)O)cn4c3c2SCC4)CC1
0.899

Dear colleague, could you please provide relative enzymatic activity for the compounds listed below?
1. CCC(C)CCCCC(=O)NC(CCN)C(=O)NC(C(=O)NC(CCN)C(=O)NC1CCNC(=O)C(C(C)O)NC(=O)C(CCN)NC(=O)C(CCN)NC(=O)C(CC(C)C)NC(=O)C(Cc2ccccc2)NC(=O)C(CCN)NC1=O)C(C)O.O=S(=O)(O)O (stereo not drawn)
2. CC(C)CCCC(=O)N[C@@H](CCNCS(=O)(=O)O)C(=O)N[C@H](C(=O)N[C@@H](CCNCS(=O)(=O)O)C(=O)N[C@H]1CCNC(=O)[C@H]([C@@H](C)O)NC(=O)[C@H](CCNCS(=O)(=O)O)NC(=O)[C@H](CCNCS(=O)(=O)O)NC(=O)[C@H](CC(C)C)NC(=O)[C@H](CC(C)C)NC(=O)[C@H](CCNCS(=O)(=O)O)NC1=O)[C@@H](C)O
3. COC(=O)N/N=C/c1c[n+]([O-])c2ccccc2[n+]1[O-]

Solution:
1: 0.894; 2: 0.903; 3: 0.913

###

biological target: MurA (UniProt Q3YX52); assay: relative enzymatic activity vs untreated control (fraction); higher = less inhibition; details: 100 µM; incubation time: 2 h at 37 C
Sequence (Q3YX52 whole entry): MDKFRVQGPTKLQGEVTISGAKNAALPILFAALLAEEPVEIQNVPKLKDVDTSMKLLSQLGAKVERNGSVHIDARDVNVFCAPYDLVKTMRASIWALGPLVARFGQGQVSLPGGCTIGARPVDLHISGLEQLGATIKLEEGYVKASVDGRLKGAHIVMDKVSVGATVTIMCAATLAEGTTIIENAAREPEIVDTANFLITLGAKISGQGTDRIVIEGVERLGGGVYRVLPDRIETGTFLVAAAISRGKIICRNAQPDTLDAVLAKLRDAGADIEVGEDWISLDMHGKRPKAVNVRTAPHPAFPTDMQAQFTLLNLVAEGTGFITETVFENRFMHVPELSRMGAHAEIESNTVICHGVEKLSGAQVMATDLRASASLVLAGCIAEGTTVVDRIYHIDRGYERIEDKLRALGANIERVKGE
Result type: relative enzymatic activity

For orientation, consider the following solved cases.
CN1CCN(c2c(F)cc3c(=O)c(C(=O)O)cn4c3c2OCN4C)CC1
0.585
CC1(C)S[C@@H]2[C@H](NC(=O)[C@H](N)c3ccccc3)C(=O)N2[C@H]1C(=O)OCOC(=O)[C@@H]1N2C(=O)C[C@H]2S(=O)(=O)C1(C)C
0.6

Exercise: For "N[C@@H]1[C@H]2CN(c3nc4c(cc3F)c(=O)c(C(=O)O)cn4-c3ccc(F)cc3F)C[C@@H]12" , what is its reported relative enzymatic activity?
Solution: 0.596

###

I'd appreciate it if you could supply relative enzymatic activity values for the items below.
target: Guanlyate kinase (UniProt Q0TBG1); assay: relative enzymatic activity vs untreated control (fraction); higher = less inhibition; details: 100 µM; incubation time: 2 h at 37 C
Sequence (Q0TBG1 whole entry): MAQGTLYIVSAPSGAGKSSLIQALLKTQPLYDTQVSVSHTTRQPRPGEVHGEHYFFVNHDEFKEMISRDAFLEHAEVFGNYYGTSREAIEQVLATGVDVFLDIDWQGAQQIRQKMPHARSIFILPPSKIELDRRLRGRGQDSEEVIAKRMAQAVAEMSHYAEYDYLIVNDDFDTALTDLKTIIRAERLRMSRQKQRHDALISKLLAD
Numbers only.

For orientation, consider the following solved cases.
CCn1cc(C(=O)O)c(=O)c2cc(F)c(N3CCN(C)CC3)cc21.CS(=O)(=O)O
0.919
CC1(C)SC2C(N3C(=O)C(c4ccccc4)NC3(C)C)C(=O)N2C1C(=O)[O-].[K+] (stereo unspecified)
1.13
COc1ccc2c(c1OC)C(=O)OC2C1c2c(cc3c(c2OC)OCO3)CCN1C.Cl (stereo unspecified)
1.12
C/C(=C\C(=O)OCCCCCCCCC(=O)O)C[C@@H]1OC[C@H](C[C@@H]2O[C@H]2[C@@H](C)[C@H](C)O)[C@@H](O)[C@H]1O
1.06
Oc1c(Cl)cc(Cl)c(Cl)c1Cc1c(O)c(Cl)cc(Cl)c1Cl
0.162
CS(=O)(=O)c1ccc(C(O)C(CF)NC(=O)C(Cl)Cl)cc1 (stereo unspecified)
0.976
COC(=O)N/N=C/c1c[n+]([O-])c2ccccc2[n+]1[O-]
0.591
CON=C(C(=O)NC1C(=O)N2C(C(=O)OCOC(=O)C(C)(C)C)=C(C=Cc3scnc3C)CSC12)c1csc(N)n1 (stereo unspecified)
0.794
CC(=O)On1cc(F)c(=O)[nH]c1=O
0.859
Cl.O=C1CC2(CCCC2)CC(=O)N1CCCCN1CCN(c2ncccn2)CC1
1

Dear colleague, could you please provide relative enzymatic activity for the compounds listed below?
1. CNC1C(OC2C(OC3C(O)C(O)C(NC(=N)N)C(O)C3NC(=N)N)OC(C)C2(O)CO)OC(CO)C(O)C1O.O=S(=O)(O)O (stereo unspecified)
2. COC1(NC(=O)CSCC#N)C(=O)N2C(C(=O)[O-])=C(CSc3nnnn3C)CSC21.[Na+] (stereo unspecified)
3. O=c1[nH]c(=O)n(C2CC(O)C(CO)O2)cc1F (stereo unspecified)
4. CON=C(C(=O)N[C@@H]1C(=O)N2C(C(=O)O)=C(CSc3nc(=O)c(O)nn3C)CS[C@H]12)c1csc(N)n1
5. CN1CCN(c2cc3c(cc2F)c(=O)c(C(=O)O)cn3-c2ccc(F)cc2)CC1.Cl
6. C[C@H]1c2cccc(O)c2C(=O)C2=C(O)[C@]3(O)C(=O)[C@@H](C(N)=O)C(=O)[C@@H](N(C)C)[C@@H]3[C@@H](O)[C@@H]21

Solution:
1. 1.02
2. 0.746
3. 1.03
4. 0.984
5. 0.929
6. 0.958
